System: SiHa
METHOD: CCK-8 cell growth inhibition, SiHa
Type: cell-based, human
CONDITION_DETAILS: Homo sapiens, SiHa; CCK-8 assay, 72-h incubation; read-out: Cell Lines IC50 SiHa
PROPERTY_MEASURED: pIC50
Units for pIC50: none; it is -log10 of a concentration expressed in mol/L.

stdin: Endpoint output: pIC50 of CC(C)n1nnc2ccc(-c3nc(Nc4ccc(CNC(=O)C5(C(=O)Nc6ccccc6)CC5)cc4)ncc3F)cc21 [12O] . Value?
stdout: 8.05

----------
Tested on: H460
METHOD: CCK-8 cell growth inhibition, H460
Assay type: cell-based, human
CONDITION_DETAILS: Homo sapiens, NCI-H460; lung cancer; CCK-8 assay, 72-h incubation
Description: In vitro anticancer screening of all newly synthesized compounds towards human solid tumor cells, cervical (SiHa) and ovarian (SKOV3) cancer cell lines, was carried out by standard CCK-8 assay with cisplatin as the positive control, as cisplatin is one of the most used chemotherapy drugs. […] The viability of cells as determined using the CCK8 assay method. […] Inhibition ratios were calculated as follows: [(AC − AS)/ (AC−Ab)] × 100%. IC50 values were calculated using GraphPad software.
PROPERTY_MEASURED: pIC50
Units for pIC50: none; it is -log10 of a concentration expressed in mol/L.

stdin: pIC50 of CC(C)n1nnc2ccc(-c3nc(Nc4ccc(CNC(=O)C5(C(=O)Nc6ccccc6)CC5)cc4)ncc3F)cc21 [12O] on H460?
stdout: 7.39
